- TESTED_TARGET: T1, human ASGR1 (asialoglycoprotein receptor 1) on cells (human, UniProt P07306 1-291)
- T1 construct: whole, on cells; also called HepG2 cells; CHO-S cells transfected with human ASGR1 full length DNA
- T1 sequence (looked up): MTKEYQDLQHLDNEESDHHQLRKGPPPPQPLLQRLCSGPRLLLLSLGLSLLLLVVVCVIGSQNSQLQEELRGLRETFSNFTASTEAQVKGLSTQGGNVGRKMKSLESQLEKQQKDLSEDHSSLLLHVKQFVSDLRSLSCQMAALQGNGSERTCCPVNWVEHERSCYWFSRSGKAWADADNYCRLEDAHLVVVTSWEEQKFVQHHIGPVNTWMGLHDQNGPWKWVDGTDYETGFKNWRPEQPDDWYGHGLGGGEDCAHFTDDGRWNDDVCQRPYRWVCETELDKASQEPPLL
- PROCEDURE_SUMMARY: Guava flow cytometry screen on HepG2 cells
PROPERTY_NAME: binding result

- hzL4L-6 (antibody, IgG1, V domains shown, IgG1, kappa) VH: QVQLQESGPGLVKPSQTLSLTCTVSGYSITSDYAWNWIRQHPGKGLEWIGYISYSGSTRYNPSLKSRVTITRDTSKNQFSLKLSSVTAADTAVYYCARRYRYDEGYGMDYWGQGTTVTVSS VL: DIQMTQSPSSLSASVGDRVTITCRASENIYSNLAWYQQKPGKAPKLLIYAATNLADGVPSRFSGSGSGTDFTLTISSLQPEDFATYYCQHFWGTPPWTFGGGTKVEIK: binds
